target: Translocator protein (Rattus norvegicus); assay: Displacement of [11C][…] from Sprague-Dawley rat brain PBR; assay type: tissue-based
pKi: −log10 of the molar value.
quantity-measured: pKi

smiles-entry: COc1ccc(OC)c(CN(C(C)=O)c2cc(F)ccc2Oc2ccccc2)c1
system-name: Translocator protein (Rattus norvegicus)
pKi: 10.02
--
smiles-entry: COc1ccccc1CN(C(C)=O)c1ccc(Cl)cc1Oc1ccccc1
system-name: Translocator protein (Rattus norvegicus)
pKi: 10.13

(I) CCOc1ccccc1CN(C(C)=O)c1ccc(Cl)cc1Oc1ccccc1
(II) CC(=O)N(Cc1ccccc1OC(C)C)c1ccc(Cl)cc1Oc1ccccc1
q: Pick one: I or II . Which has the bigger pKi number? I would appreciate it if you answered with the label of your choice.
a: I
(I: 10.01, II: 9.72)

----------
biological target: Translocator protein (Rattus norvegicus, UniProt P16257); assay: Displacement of [11C]DAA1106 from Sprague-Dawley rat brain PBR; assay type: tissue-based
Sequence (P16257 whole entry, looked up): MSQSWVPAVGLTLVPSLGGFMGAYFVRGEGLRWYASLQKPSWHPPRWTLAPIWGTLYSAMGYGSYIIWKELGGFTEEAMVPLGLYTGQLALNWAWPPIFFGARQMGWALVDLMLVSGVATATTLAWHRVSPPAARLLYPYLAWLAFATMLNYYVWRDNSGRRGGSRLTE
pKi: −log10 of the molar value.
quantity-measured: pKi

smiles-entry: COc1ccccc1CN(C(C)=O)c1ccc(Cl)cc1Oc1ccccc1
system-name: Translocator protein (Rattus norvegicus, UniProt P16257)
quantitative-readout: 9.51

(a) CCOc1ccccc1CN(C(C)=O)c1ccc(Cl)cc1Oc1ccccc1
(b) CC(=O)N(Cc1ccccc1OC(C)C)c1ccc(Cl)cc1Oc1ccccc1
q: Pick one: a or b . Which has the bigger pKi number? I would appreciate it if you answered with the label of your choice.
a: a

Cited source for all entries: ChEMBL document CHEMBL1147658
